- System: A-375
- PROTOCOL_DETAILS: Cytotoxicity against human A375 cells assessed as reduction in cell viability incubated for 96 hrs by SRB assay
- Format: functional, cell-based
- CONDITION_PARAMETERS: A-375, 96 h
Consider the cut-off 20 µM. If the recorded EC50 is strictly smaller, the label is 1.0; if not, the label is 0.0.

{"COMPOUND": "C=C(C)[C@@H]1CC[C@]2(COC(C)=O)CC[C@]3(C)[C@H](CC[C@@H]4[C@@]5(C)CC[C@H](OC(C)=O)C(C)(C)[C@@H]5CC[C@]43C)[C@@H]12 [BETULIN DIACETATE]", "DISCRETE_LABEL": 0.0}
{"COMPOUND": "C=C(C)[C@@H]1CC[C@]2(CO)CC[C@]3(C)[C@H](CC[C@@H]4[C@@]5(C)CC[C@H](OC(C)=O)C(C)(C)[C@@H]5CC[C@]43C)[C@@H]12", "DISCRETE_LABEL": 0.0}
{"COMPOUND": "C=C(C)[C@@H]1CC[C@]2(COC(=O)CCC3=[N+]4C(=Cc5c(C)cc(C)n5[B-]4(F)F)C=C3)CC[C@]3(C)[C@H](CC[C@@H]4[C@@]5(C)CC[C@H](OC(C)=O)C(C)(C)[C@@H]5CC[C@]43C)[C@@H]12", "DISCRETE_LABEL": 0.0}
{"COMPOUND": "CC(=O)O[C@H]1CC[C@]2(C)[C@H]3CC=C4[C@@H]5CC(C)(C)CC[C@]5(C(=O)NCCNC(=O)CCC5=[N+]6C(=Cc7c(C)cc(C)n7[B-]6(F)F)C=C5)CC[C@@]4(C)[C@]3(C)CC[C@H]2C1(C)C", "DISCRETE_LABEL": 1.0}
{"COMPOUND": "CC(=O)O[C@H]1CC[C@]2(C)[C@H]3CC=C4[C@@H]5CC(C)(C)CC[C@]5(C(=O)N5CCN(C(=O)CCC6=[N+]7C(=Cc8c(C)cc(C)n8[B-]7(F)F)C=C6)CC5)CC[C@@]4(C)[C@]3(C)CC[C@H]2C1(C)C", "DISCRETE_LABEL": 0.0}
{"COMPOUND": "C=C(C)[C@@H]1CC[C@]2(CO)CC[C@]3(C)[C@H](CC[C@@H]4[C@@]5(C)CC[C@H](O)C(C)(C)[C@@H]5CC[C@]43C)[C@@H]12 [BETULIN]", "DISCRETE_LABEL": 0.0}
{"COMPOUND": "Cc1cc(C)n2c1C=C1C=CC(CCC(=O)O)=[N+]1[B-]2(F)F", "DISCRETE_LABEL": 0.0}
{"COMPOUND": "CC(=O)O[C@H]1CC[C@]2(C)[C@H]3C(=O)C=C4[C@@H]5C[C@@](C)(C(=O)N6CCN(C(=O)CCC7=[N+]8C(=Cc9c(C)cc(C)n9[B-]8(F)F)C=C7)CC6)CC[C@]5(C)CC[C@@]4(C)[C@]3(C)CC[C@H]2C1(C)C", "DISCRETE_LABEL": 1.0}
{"COMPOUND": "CC(=O)O[C@H]1CC[C@]2(C)[C@H]3C(=O)C=C4[C@@H]5C[C@@](C)(C(=O)NCCNC(=O)CCC6=[N+]7C(=Cc8c(C)cc(C)n8[B-]7(F)F)C=C6)CC[C@]5(C)CC[C@@]4(C)[C@]3(C)CC[C@H]2C1(C)C", "DISCRETE_LABEL": 0.0}
{"COMPOUND": "CC(=O)O[C@H]1CC[C@]2(C)[C@H]3CC=C4[C@@H]5[C@@H](C)[C@H](C)CC[C@]5(C(=O)NCCNC(=O)CCC5=[N+]6C(=Cc7c(C)cc(C)n7[B-]6(F)F)C=C5)CC[C@@]4(C)[C@]3(C)CC[C@H]2C1(C)C", "DISCRETE_LABEL": 1.0}
{"COMPOUND": "C=C(C)[C@@H]1CC[C@]2(C(=O)N3CCN(C(=O)CCC4=[N+]5C(=Cc6c(C)cc(C)n6[B-]5(F)F)C=C4)CC3)CC[C@]3(C)[C@H](CC[C@@H]4[C@@]5(C)CC[C@H](OC(C)=O)C(C)(C)[C@@H]5CC[C@]43C)[C@@H]12", "DISCRETE_LABEL": 0.0}

---

- System: FaDu
- PROTOCOL_DETAILS: Cytotoxicity against human FADU cells assessed as reduction in cell viability incubated for 96 hrs by SRB assay
- Assay type: functional, cell-based

{"COMPOUND": "C=C(C)[C@@H]1CC[C@]2(C(=O)N3CCNCC3)CC[C@]3(C)[C@H](CC[C@@H]4[C@@]5(C)CC[C@H](OC(C)=O)C(C)(C)[C@@H]5CC[C@]43C)[C@@H]12", "READING_UNIT": "µM", "CMP": "=", "EC50": 1.3}
{"COMPOUND": "C=C(C)[C@@H]1CC[C@]2(CO)CC[C@]3(C)[C@H](CC[C@@H]4[C@@]5(C)CC[C@H](O)C(C)(C)[C@@H]5CC[C@]43C)[C@@H]12 [BETULIN]", "READING_UNIT": "µM", "CMP": ">", "EC50": 30}
{"COMPOUND": "CC(=O)O[C@H]1CC[C@]2(C)[C@H]3C(=O)C=C4[C@@H]5C[C@@](C)(C(=O)N6CCN(C(=O)CCC7=[N+]8C(=Cc9c(C)cc(C)n9[B-]8(F)F)C=C7)CC6)CC[C@]5(C)CC[C@@]4(C)[C@]3(C)CC[C@H]2C1(C)C", "READING_UNIT": "µM", "CMP": "=", "EC50": 8.6}
{"COMPOUND": "CC1(C)[C@@H](O)CC[C@]2(C)[C@H]3C(=O)C=C4[C@@H]5C[C@@](C)(C(=O)O)CC[C@]5(C)CC[C@@]4(C)[C@]3(C)CC[C@@H]12 [ENOXOLONE]", "READING_UNIT": "µM", "CMP": ">", "EC50": 30}
{"COMPOUND": "CC(=O)O[C@H]1CC[C@]2(C)[C@H]3CC=C4[C@@H]5CC(C)(C)CC[C@]5(C(=O)NCCN)CC[C@@]4(C)[C@]3(C)CC[C@H]2C1(C)C", "READING_UNIT": "µM", "CMP": "=", "EC50": 4.3}
{"COMPOUND": "CC(=O)O[C@H]1CC[C@]2(C)[C@H]3CC=C4[C@@H]5[C@@H](C)[C@H](C)CC[C@]5(C(=O)NCCNC(=O)CCC5=[N+]6C(=Cc7c(C)cc(C)n7[B-]6(F)F)C=C5)CC[C@@]4(C)[C@]3(C)CC[C@H]2C1(C)C", "READING_UNIT": "µM", "CMP": "=", "EC50": 5.7}
{"COMPOUND": "CC(=O)O[C@H]1CC[C@]2(C)[C@H]3CC=C4[C@@H]5CC(C)(C)CC[C@]5(C(=O)N5CCNCC5)CC[C@@]4(C)[C@]3(C)CC[C@H]2C1(C)C", "READING_UNIT": "µM", "CMP": "=", "EC50": 1.6}
{"COMPOUND": "C=C(C)[C@@H]1CC[C@]2(C(=O)NCCN)CC[C@]3(C)[C@H](CC[C@@H]4[C@@]5(C)CC[C@H](OC(C)=O)C(C)(C)[C@@H]5CC[C@]43C)[C@@H]12", "READING_UNIT": "µM", "CMP": "=", "EC50": 1.2}
{"COMPOUND": "Cc1cc(C)n2c1C=C1C=CC(CCC(=O)O)=[N+]1[B-]2(F)F", "READING_UNIT": "µM", "CMP": ">", "EC50": 30}
{"COMPOUND": "C=C(C)[C@@H]1CC[C@]2(COC(C)=O)CC[C@]3(C)[C@H](CC[C@@H]4[C@@]5(C)CC[C@H](OC(C)=O)C(C)(C)[C@@H]5CC[C@]43C)[C@@H]12 [BETULIN DIACETATE]", "READING_UNIT": "µM", "CMP": ">", "EC50": 30}

---

- System: A-375
- PROTOCOL_DETAILS: Cytotoxicity against human A375 cells assessed as reduction in cell viability incubated for 96 hrs by SRB assay
- Type: functional, cell-based
- CONDITION_PARAMETERS: A-375, 96 h
OBSERVATION_TYPE: EC50 (µM)

{"TEST_SMILES": "CC(=O)O[C@H]1CC[C@]2(C)[C@H]3CC=C4[C@@H]5[C@@H](C)[C@H](C)CC[C@]5(C(=O)N5CCN(C(=O)CCC6=[N+]7C(=Cc8c(C)cc(C)n8[B-]7(F)F)C=C6)CC5)CC[C@@]4(C)[C@]3(C)CC[C@H]2C1(C)C", "CMP": "=", "REPORTED_MEASUREMENT": 21.6}
{"TEST_SMILES": "C=C(C)[C@@H]1CC[C@]2(C(=O)NCCNC(=O)CCC3=[N+]4C(=Cc5c(C)cc(C)n5[B-]4(F)F)C=C3)CC[C@]3(C)[C@H](CC[C@@H]4[C@@]5(C)CC[C@H](OC(C)=O)C(C)(C)[C@@H]5CC[C@]43C)[C@@H]12", "CMP": ">", "REPORTED_MEASUREMENT": 30}
